Catalogue of binders with associated pKd
Molecular target: T1, human IGFBP7 recombinant protein (UniProt Q16270 27-282, biotinylated with EZ-LINK NHS-PEG4 biotin in the BLI assays (sites not given))
T1 chain: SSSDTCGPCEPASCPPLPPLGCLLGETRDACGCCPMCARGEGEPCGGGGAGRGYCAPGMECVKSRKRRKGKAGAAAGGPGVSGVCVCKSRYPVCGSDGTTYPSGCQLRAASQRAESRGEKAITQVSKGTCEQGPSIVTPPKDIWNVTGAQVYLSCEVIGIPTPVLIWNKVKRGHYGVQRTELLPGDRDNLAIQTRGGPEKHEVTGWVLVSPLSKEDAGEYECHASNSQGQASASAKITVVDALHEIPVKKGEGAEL
Test: BLI
The quantity pKd is defined as the negative base-10 logarithm of the molar concentration.

bispecific anti-IGFBP7 nanobody Fc-fusion construct A1D4-mIgG2a (bispecific antibody) VQLQESGGGLVQAGGSLRLSCAASGSLFAIDKWGWYRQVAGNERELVAWRYSPVSINYGDSVKGRFTVSGDSSRKRVYLQMNSLKPDDTAVYRCAAVISGAWYWGQGTQVTVSSVQLQESGGGLVQTGGSLRLSCAASGRSFTFSSYAMGWFRHAPGKEREFLTAITWSGDYTYYTDSVKGRSTISRDNAKNTVYLQLNNLKPEDTAVYYCAAKFSQVSAFFATVSEYEYWGQGTQVTVSS	9.04

Switching to the query record.
Field request: pKd | item: bispecific anti-IGFBP7 nanobody Fc-fusion construct A1-mIgG2a-D4 (bispecific antibody, V domains shown, also called A1-mIgG2a-D4-2; not shown: mouse IgG2a Fc fragment (mIgG2a Fc)) V domain 1: VQLQESGGGLVQAGGSLRLSCAASGSLFAIDKWGWYRQVAGNERELVAWRYSPVSINYGDSVKGRFTVSGDSSRKRVYLQMNSLKPDDTAVYRCAAVISGAWYWGQGTQVTVSS V domain 2: VQLQESGGGLVQTGGSLRLSCAASGRSFTFSSYAMGWFRHAPGKEREFLTAITWSGDYTYYTDSVKGRSTISRDNAKNTVYLQLNNLKPEDTAVYYCAAKFSQVSAFFATVSEYEYWGQGTQVTVSS 9.71
